target.system: Angiotensin-converting enzyme (Homo sapiens)
Sequence (P12821 whole entry): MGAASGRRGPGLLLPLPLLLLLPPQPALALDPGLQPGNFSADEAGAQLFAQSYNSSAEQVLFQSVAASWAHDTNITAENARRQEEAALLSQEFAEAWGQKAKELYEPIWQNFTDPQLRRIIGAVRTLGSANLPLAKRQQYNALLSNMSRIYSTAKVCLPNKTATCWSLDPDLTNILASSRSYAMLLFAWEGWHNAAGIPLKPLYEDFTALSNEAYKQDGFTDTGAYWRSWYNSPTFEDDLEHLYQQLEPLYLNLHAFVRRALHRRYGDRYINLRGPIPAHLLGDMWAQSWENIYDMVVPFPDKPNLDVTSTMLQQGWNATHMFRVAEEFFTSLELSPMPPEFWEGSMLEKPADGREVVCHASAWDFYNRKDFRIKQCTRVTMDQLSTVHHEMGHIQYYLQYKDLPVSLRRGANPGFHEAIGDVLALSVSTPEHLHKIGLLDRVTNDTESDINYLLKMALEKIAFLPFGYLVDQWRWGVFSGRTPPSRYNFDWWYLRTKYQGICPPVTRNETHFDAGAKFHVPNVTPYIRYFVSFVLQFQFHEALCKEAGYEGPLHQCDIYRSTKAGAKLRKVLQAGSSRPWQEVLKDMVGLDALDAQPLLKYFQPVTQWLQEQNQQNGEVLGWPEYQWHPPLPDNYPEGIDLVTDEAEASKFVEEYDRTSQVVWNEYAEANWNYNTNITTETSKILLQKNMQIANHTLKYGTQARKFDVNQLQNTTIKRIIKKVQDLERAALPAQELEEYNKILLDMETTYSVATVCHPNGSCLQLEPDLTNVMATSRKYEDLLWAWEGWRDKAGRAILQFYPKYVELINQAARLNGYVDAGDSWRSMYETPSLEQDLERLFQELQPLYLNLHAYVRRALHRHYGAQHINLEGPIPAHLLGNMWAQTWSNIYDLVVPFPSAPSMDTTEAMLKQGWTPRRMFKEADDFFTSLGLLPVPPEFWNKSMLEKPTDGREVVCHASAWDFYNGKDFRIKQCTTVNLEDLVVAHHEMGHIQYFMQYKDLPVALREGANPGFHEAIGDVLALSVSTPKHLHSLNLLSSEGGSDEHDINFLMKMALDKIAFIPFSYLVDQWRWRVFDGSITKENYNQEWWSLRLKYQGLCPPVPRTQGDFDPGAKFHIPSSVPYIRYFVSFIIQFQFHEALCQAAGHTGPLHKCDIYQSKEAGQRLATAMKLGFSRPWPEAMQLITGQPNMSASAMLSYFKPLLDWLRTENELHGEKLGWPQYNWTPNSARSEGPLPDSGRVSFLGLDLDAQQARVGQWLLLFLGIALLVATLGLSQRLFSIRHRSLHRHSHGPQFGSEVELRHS
assay.notes: Inhibition of human plasma ACE
assay.readout: IC50 (nM)

INSERT INTO assay_data (item_smiles, assay_readout, experimental_value) VALUES
  ('C[C@H](N[C@@H](CCc1ccccc1)C(=O)O)C(=O)N1C[C@@H](NC(=O)C[C@H](N)Cc2cc(F)c(F)cc2F)C[C@H]1C(=O)O', 'IC50', 158),
  ('CCCC[C@H](N[C@@H](CCc1ccccc1)C(=O)O)C(=O)N1C[C@@H](NC(=O)C[C@H](N)Cc2cc(F)c(F)cc2F)C[C@H]1C(=O)O', 'IC50', 279),
  ('N[C@@H](CC(=O)N1CCn2c(nnc2C(F)(F)F)C1)Cc1cc(F)c(F)cc1F', 'IC50', 11000),
  ('CCC[C@H](N[C@@H](CCc1ccccc1)C(=O)O)C(=O)N1C[C@@H](NC(=O)C[C@H](N)Cc2cc(F)c(F)cc2F)C[C@H]1C(=O)O', 'IC50', 51);
